Tested on: PU.1 dependent gene expression
Assay: RT-qPCR of mRNA levels in BV2 PU.1-Luciferase cells (validation round 3); further: test concentration or dose not given here
Assay type: cell-based, mouse
Conditions: 2-day treatment
Assign mRNA levels IL1β to each entry below.

Asked: For the compound shown here, COc1cc(NS(=O)(=O)c2ccc3c(c2)CCN3S(C)(=O)=O)cc(OC)c1 [Compound 2F5] , give the reported mRNA levels IL1β.
Given back: 0.767 multiples of 1×

Asked: Fill blank: measured mRNA levels IL1β of the compound C[C@H]1C[C@H]2[C@@H]3CCC4=CC(=O)C=C[C@]4(C)[C@@]3(F)[C@@H](O)C[C@]2(C)[C@@]1(O)C(=O)CO [Betamethasone, reference compound] is ____.
Given back: 0.379 multiples of 1×

Asked: Using the record for C[C@]12CCC(=O)C=C1CC[C@H]1[C@@H]3CC[C@](O)(C(=O)CO)[C@@]3(C)C[C@H](O)[C@@]12F [Fludrocortisone, reference compound] , report its mRNA levels IL1β.
Given back: 1.764 multiples of 1×

Asked: Given the entry CCc1ccc(NC(=O)Cn2c(=O)oc3cc(S(=O)(=O)N4CCCCCC4)ccc32)cc1 [Compound 2A7] , report its measured mRNA levels IL1β.
Given back: 0.435 multiples of 1×

Asked: Recorded mRNA levels IL1β of CCOc1ccc(-c2nc(CSCC(=O)NCc3ccc(C)cc3)c(C)o2)cc1 [Compound 2H2] , please.
Given back: 0.706 multiples of 1×

Asked: Quick check: mRNA levels IL1β of CCn1c(=O)c2cc(C(=O)Nc3cc(OC)c(OC)c(OC)c3)sc2c2ccccc21 [Compound 1G9] ?
Given back: 0.582 multiples of 1×

Asked: Reported mRNA levels IL1β, compound Cc1cccc(Cn2cccc(C(=O)Nc3nc4ccccc4s3)c2=O)c1 [Compound 2F11] : ____
Given back: 1.086 multiples of 1×

Asked: Param item = Cc1ccc(-c2nc3cc(C(C)C)ccc3o2)cc1NC(=O)c1cc([N+](=O)[O-])ccc1N1CCOCC1 [Compound 1C4] ; retrieve measured mRNA levels IL1β.
Given back: 0.813 multiples of 1×

Asked: Return reported mRNA levels IL1β; argument: Cn1nc(CC(=O)Nc2ccc(N3CCN(C(=O)OC(C)(C)C)CC3)cc2)c2ccccc2c1=O [Compound D06]
Given back: 0.590 multiples of 1×

Asked: I would be grateful if you could share the reported mRNA levels IL1β for Cc1c(Cl)cccc1-n1ncc(C(=O)Nc2ccc3c(c2)OCCO3)c1C1CCN(C(=O)OC(C)(C)C)CC1 [Compound 2D3] .
Given back: 0.960 multiples of 1×

Asked: Record request: mRNA levels IL1β value, item CC(C)(C)OC(=O)N1CCC(c2c(C(=O)Nc3ccc4c(c3)OCCO4)cnn2-c2ccccc2)CC1 [Compound 2C12]
Given back: 0.486 multiples of 1×

Asked: Requested field: mRNA levels IL1β. Item: CCCCN(c1ccccc1)c1ncnc2c1cnn2-c1ccc(Cl)cc1 [Compound 2G8]
Given back: 1.362 multiples of 1×

Asked: Would you kindly share the measured mRNA levels IL1β for Cc1ccc(-c2c(C)n3c4c(=O)n(C)c(=O)n(C)c4nc3n2CCO)cc1 [Compound 2H5] ?
Given back: 0.185 multiples of 1×

Asked: Quick one: mRNA levels IL1β of Cn1nccc1C(=O)NCc1ccc2c(c1)CCN2C(=O)c1ccc(F)cc1 [Compound 2G2] ?
Given back: 0.887 multiples of 1×
